Tested on: LOVO cells
Test: LOVO CTG proliferation assay (120 h) (CRC, G13D)
Format: cell-based
Settings: Homo sapiens, CTG 120 h
experimental.readout: pIC50
Lab note — pIC50 values are minus log10 of concentrations in M.

Input line: Need pIC50, item CO[C@@H]1C[C@@H]([C@H](C)Oc2cc(N3CCN(C)C4(CC4)C3)nc(-c3noc4c3CCC[C@@]43CCCc4sc(N)c(C#N)c43)n2)N(C)C1 [II-152]
Output line: 6.19

Input line: Now consider Cc1cn(C)nc1-c1cc(O[C@@H](C)[C@@H]2CCCN2C)nc(-c2noc3c2CCC[C@@]32CCCc3sc(N)c(C#N)c32)n1 [II-68] .
Output line: 6.05

Input line: Now consider C[C@H](Oc1cc(-n2cc(Cn3ccnc3)nn2)nc(-c2noc3c2CCC[C@@]32CCCc3sc(N)c(C#N)c32)n1)[C@@H]1CCCN1C [II-113] .
Output line: 6.91

Input line: Now consider C[C@H](Oc1cc(-c2cnn(C)n2)nc(-c2noc3c2CCC[C@@]32CCCc3sc(N)c(C#N)c32)n1)[C@@H]1CCCN1C [II-86] .
Output line: 7.11

Input line: Now consider C[C@H](Oc1cc(-n2nccc2-c2ccncc2)nc(-c2noc3c2CCC[C@@]32CCCc3sc(N)c(C#N)c32)n1)[C@@H]1CCCN1C [II-131] .
Output line: 6.65

Input line: Now consider C[C@H](Oc1cc(-n2cc3ccn(C[C@H]4CCOC4)c(=O)c3n2)nc(-c2noc3c2CCC[C@@]32CCCc3sc(N)c(C#N)c32)n1)[C@@H]1CCCN1C [II-204] .
Output line: 7.34
